target: human ether-à-go-go-related gene (hERG) potassium channel (human); experiment: primary screen, population patch clamp on CHO cells stably expressing hERG; higher = less effect of the substance;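 also: peak tail current of the secondary pulse compared with the same well before compound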
Sequence (Q12809 whole entry, looked up): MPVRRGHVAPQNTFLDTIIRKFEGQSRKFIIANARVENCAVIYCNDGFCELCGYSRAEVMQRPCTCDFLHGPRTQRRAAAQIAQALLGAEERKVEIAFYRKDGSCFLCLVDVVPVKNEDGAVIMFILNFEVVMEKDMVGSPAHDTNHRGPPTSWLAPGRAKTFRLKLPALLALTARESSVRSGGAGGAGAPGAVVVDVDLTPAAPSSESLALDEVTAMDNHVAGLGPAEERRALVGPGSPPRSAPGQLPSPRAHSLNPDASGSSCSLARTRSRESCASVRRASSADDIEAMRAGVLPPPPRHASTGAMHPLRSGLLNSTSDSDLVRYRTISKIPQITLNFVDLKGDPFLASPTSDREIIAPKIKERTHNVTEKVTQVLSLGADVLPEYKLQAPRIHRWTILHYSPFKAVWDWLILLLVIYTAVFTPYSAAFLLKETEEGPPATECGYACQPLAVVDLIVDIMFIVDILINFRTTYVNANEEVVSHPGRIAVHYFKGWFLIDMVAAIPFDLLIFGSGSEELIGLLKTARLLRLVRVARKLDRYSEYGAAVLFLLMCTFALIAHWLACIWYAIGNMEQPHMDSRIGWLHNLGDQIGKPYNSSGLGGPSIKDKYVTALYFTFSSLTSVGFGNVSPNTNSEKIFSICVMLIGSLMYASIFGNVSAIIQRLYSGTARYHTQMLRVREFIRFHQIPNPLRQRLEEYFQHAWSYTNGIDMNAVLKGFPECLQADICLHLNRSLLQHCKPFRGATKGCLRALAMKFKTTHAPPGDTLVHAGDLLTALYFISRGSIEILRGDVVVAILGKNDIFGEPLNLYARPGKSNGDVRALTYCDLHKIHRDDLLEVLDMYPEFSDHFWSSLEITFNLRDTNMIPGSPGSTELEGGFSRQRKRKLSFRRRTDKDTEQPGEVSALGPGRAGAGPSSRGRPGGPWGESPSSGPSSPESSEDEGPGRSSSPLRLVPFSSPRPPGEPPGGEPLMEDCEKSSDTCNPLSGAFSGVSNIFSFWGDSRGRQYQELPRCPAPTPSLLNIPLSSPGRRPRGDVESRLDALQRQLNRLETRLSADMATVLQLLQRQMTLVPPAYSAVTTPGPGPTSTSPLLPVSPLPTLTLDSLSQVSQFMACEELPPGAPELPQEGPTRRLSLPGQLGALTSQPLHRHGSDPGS
Screen size: about 310,000 compounds; about 14,000 (4.5%) showed an effect of 50% or more. The effect is printed as a negative number. Shown is part of a subset that was picked to be rich in strong results.
This section presents molecules with their documented hERG current change (%, negative = inhibition) at 10uM values.
The figure you give is taken to be in %; do not add the unit.

Known results for molecules:
[[record]]
molecule = "O=C(CSc1nc2ccccc2s1)N/N=C/c1ccccc1C(=O)O"
experimental_result = 30.5

[[record]]
molecule = "CCOc1ccc(S(N)(=O)=O)cc1-c1nc2c(C(C)(C)C)nn(C)c2c(=O)[nH]1"
experimental_result = 10.9

[[record]]
molecule = "O=C(c1ccc(Cl)cc1)N1N=C(c2ccccn2)CC1(O)C(F)(F)F (centres unmarked)"
experimental_result = -13.6


Prompt: Supply reported hERG current change (%, negative = inhibition) at 10uM belonging to this molecule: Cc1ccc(S(=O)(=O)Nc2c(C)nn(C)c2C)cc1
Response: -4.07

Prompt: Entry N/C(=N\OC(=O)COc1ccc2ccccc2c1)c1ccccn1 needs its hERG current change (%, negative = inhibition) at 10uM filled in; supply it.
Response: -1.39

Prompt: Supply reported hERG current change (%, negative = inhibition) at 10uM belonging to this molecule: COc1ccc(OCC2CNC(=O)O2)cc1 (centres unmarked)
Response: -26.2

Prompt: Assign hERG current change (%, negative = inhibition) at 10uM to the following record: Cc1cc(NC(=O)C(C)SCC(=O)Nc2ccccc2N2CCCC2)no1 (centres unmarked)
Response: 15.1

Prompt: Tell me its hERG current change (%, negative = inhibition) at 10uM given CN(CCc1ccccc1)C1CCCN(C(=O)Cn2cccn2)C1 (centres unmarked) as the entry.
Response: -1.49

Prompt: Identify measured hERG current change (%, negative = inhibition) at 10uM corresponding to Nc1nc2n(n1)C(c1ccco1)CC(c1ccc(Cl)c(Cl)c1)N2 (centres unmarked)
Response: -31.4

Prompt: Determine from records and report hERG current change (%, negative = inhibition) at 10uM for O=C1NCC(COc2ccc([N+](=O)[O-])cc2)O1 (centres unmarked)
Response: -78.4

Prompt: Return hERG current change (%, negative = inhibition) at 10uM (reported value) for this molecule: CCOC(=O)c1ccc2cccc(C)n2c1=O
Response: 3.05
